- Tested on: Hepatitis C virus
- assay_summary: Antiviral activity against HCV genotype 1b harboring D168A mutant infected in human Huh7 cells incubated for 96 hrs by luciferase assay
- Type: functional, organism-based, Hepacivirus hominis
- settings: subtype 1b, Huh-7, 96 h
parameter_measured: pEC50
A value of pEC50 is the negative decimal logarithm of a concentration given in moles per litre.

>>> observed_result("COc1ccc2nc(C)c(O[C@@H]3C[C@H]4C(=O)N[C@]5(C(=O)NS(=O)(=O)C6(C)CC6)C[C@H]5/C=C/CCCCC[C@H](NC(=O)OCC5(C)CC5(F)F)C(=O)N4C3)nc2c1 (stereo partly drawn)")
8.68
>>> observed_result("COc1ccc2nc(O[C@@H]3C[C@H]4C(=O)N[C@]5(C(=O)NS(=O)(=O)C6(C)CC6)C[C@H]5/C=C/CCCCC[C@H](NC(=O)O[C@H](C)C(C)C)C(=O)N4C3)c(C(F)(F)F)nc2c1")
8.20

Here is another molecule to look at.
Inquiry: What does the data say about its pEC50? Entry: "COc1ccc2nc(C)c(O[C@@H]3C[C@H]4C(=O)N[C@]5(C(=O)NS(=O)(=O)C6(C)CC6)C[C@H]5/C=C/CCCCC[C@H](NC(=O)OC5(C(F)(F)F)CCCC5)C(=O)N4C3)nc2c1"
Reply text: 7.70

---

- target_or_test_system: Hepatitis C virus serine protease, NS3/NS4A (Hepatitis C virus, UniProt A3EZI9+D2K2A8)
- assay_summary: Inhibition of HCV GT-3a NS3/4a protease using Ac-DE-D(Edans)-EE-Abu-c-[COO]-AS-K(Dabcy1)-NH2 preincubated for 1 hr followed by substrate addition
- Assay type: protein-complex assay, Hepatitis C virus subtype 3a
// classify: if (Ki < 200 nM) YES else NO

Inquiry: Lab note: Ki threshold 200 nM. Does this compound come in strictly under it? "COc1ccc2nc(O[C@@H]3C[C@H]4C(=O)N[C@]5(C(=O)NS(=O)(=O)C6(C)CC6)C[C@H]5/C=C/CCCCC[C@H](NC(=O)O[C@H](C)C(F)(F)F)C(=O)N4C3)c(C(F)(F)F)nc2c1"
Reply text: NO

Inquiry: Lab note: Ki threshold 200 nM. Does this compound come in strictly under it? "COc1ccc2nc(O[C@@H]3C[C@H]4C(=O)N[C@]5(C(=O)NS(=O)(=O)C6(C)CC6)C[C@H]5/C=C/CCCCC[C@H](NC(=O)O[C@@H](C)C(F)(F)F)C(=O)N4C3)c(C(F)(F)F)nc2c1"
Reply text: NO

Inquiry: Lab note: Ki threshold 200 nM. Does this compound come in strictly under it? "COc1ccc2nc(C)c(O[C@@H]3C[C@H]4C(=O)N[C@]5(C(=O)NS(=O)(=O)C6(C)CC6)C[C@H]5/C=C/CCCCC[C@H](NC(=O)OCC5(C(F)(F)F)CC5)C(=O)N4C3)nc2c1"
Reply text: NO

Inquiry: Lab note: Ki threshold 200 nM. Does this compound come in strictly under it? COc1ccc2nc(C)c(O[C@@H]3C[C@H]4C(=O)N[C@]5(C(=O)NS(=O)(=O)C6(C)CC6)C[C@H]5/C=C/CCCCC[C@H](NC(=O)OC5C[C@@H]6C[C@@H]6C5)C(=O)N4C3)nc2c1 (some centres undefined)
Reply text: YES

Inquiry: Lab note: Ki threshold 200 nM. Does this compound come in strictly under it? "COc1ccc2nc(C)c(O[C@@H]3C[C@H]4C(=O)N[C@]5(C(=O)NS(=O)(=O)C6(C)CC6)C[C@H]5/C=C/CCCCC[C@H](NC(=O)OC5CCCCC5)C(=O)N4C3)nc2c1"
Reply text: YES

Inquiry: Lab note: Ki threshold 200 nM. Does this compound come in strictly under it? "COc1ccc2nc(C)c(O[C@@H]3C[C@H]4C(=O)N[C@]5(C(=O)NS(=O)(=O)C6(C)CC6)C[C@H]5/C=C/CCCCC[C@H](NC(=O)OC5(C)CCCC5)C(=O)N4C3)nc2c1"
Reply text: YES

Inquiry: Lab note: Ki threshold 200 nM. Does this compound come in strictly under it? "COc1ccc2nc(O[C@@H]3C[C@H]4C(=O)N[C@]5(C(=O)NS(=O)(=O)C6(C)CC6)C[C@H]5/C=C/CCCCC[C@H](NC(=O)OC5(C(F)(F)F)CCC5)C(=O)N4C3)c(C(F)(F)F)nc2c1"
Reply text: YES

Inquiry: Lab note: Ki threshold 200 nM. Does this compound come in strictly under it? COc1ccc2nc(C)c(O[C@@H]3C[C@H]4C(=O)N[C@]5(C(=O)NS(=O)(=O)C6(C)CC6)C[C@H]5/C=C/CCCCC[C@H](NC(=O)OCC5(C)CC5(F)F)C(=O)N4C3)nc2c1 (some centres undefined)
Reply text: YES

Inquiry: Lab note: Ki threshold 200 nM. Does this compound come in strictly under it? "COc1ccc2nc(O[C@@H]3C[C@H]4C(=O)N[C@]5(C(=O)NS(=O)(=O)C6(C)CC6)C[C@H]5/C=C/CCCCC[C@H](NC(=O)OC(C)(C)C(F)(F)F)C(=O)N4C3)c(C(F)(F)F)nc2c1"
Reply text: NO

Inquiry: Lab note: Ki threshold 200 nM. Does this compound come in strictly under it? "COc1ccc2nc(O[C@@H]3C[C@H]4C(=O)N[C@]5(C(=O)NS(=O)(=O)C6(C)CC6)C[C@H]5/C=C/CCCCC[C@H](NC(=O)OC5CC5)C(=O)N4C3)c(C(F)(F)F)nc2c1"
Reply text: NO

Inquiry: Lab note: Ki threshold 200 nM. Does this compound come in strictly under it? "COc1ccc2nc(C)c(O[C@@H]3C[C@H]4C(=O)N[C@]5(C(=O)NS(=O)(=O)C6(C)CC6)C[C@H]5/C=C/CCCCC[C@H](NC(=O)OC5CCCC5)C(=O)N4C3)nc2c1"
Reply text: YES

Inquiry: Lab note: Ki threshold 200 nM. Does this compound come in strictly under it? "COc1ccc2nc(O[C@@H]3C[C@H]4C(=O)N[C@]5(C(=O)NS(=O)(=O)C6(C)CC6)C[C@H]5/C=C/CCCCC[C@H](NC(=O)O[C@@H](C)C(C)C)C(=O)N4C3)c(C(F)(F)F)nc2c1"
Reply text: NO

Inquiry: Lab note: Ki threshold 200 nM. Does this compound come in strictly under it? "COc1ccc2nc(O[C@@H]3C[C@H]4C(=O)N[C@]5(C(=O)NS(=O)(=O)C6(C)CC6)C[C@H]5/C=C/CCCCC[C@H](NC(=O)OC5CCCC5)C(=O)N4C3)c(C(F)(F)F)nc2c1"
Reply text: NO

Inquiry: Lab note: Ki threshold 200 nM. Does this compound come in strictly under it? "COc1ccc2nc(O[C@@H]3C[C@H]4C(=O)N[C@]5(C(=O)NS(=O)(=O)C6(C)CC6)C[C@H]5/C=C/CCCCC[C@H](NC(=O)OC5(C(F)(F)F)CCCC5)C(=O)N4C3)c(C(F)(F)F)nc2c1"
Reply text: NO

---

- assay_summary: Cmax in Sprague-Dawley rat at 10 mg/kg, po measured after 0.25 to 24 hrs by LC-MS/MS analysis
- Type: ADME, organism-based
- Set-up: route oral, time 0.25-24 hrs, dose 10 mg/kg
- settings: in vivo
Readings of Cmax for the listed compounds

>>> observed_result("COc1ccc2nc(C)c(O[C@@H]3C[C@H]4C(=O)N[C@]5(C(=O)NS(=O)(=O)C6(C)CC6)C[C@H]5/C=C/CCCCC[C@H](NC(=O)OC5(C(F)(F)F)CCCC5)C(=O)N4C3)nc2c1")
"110 nM"

Here is another compound to look at.
Inquiry: What does the data say about its Cmax? Entry: "COc1ccc2nc(C)c(O[C@@H]3C[C@H]4C(=O)N[C@]5(C(=O)NS(=O)(=O)C6(C)CC6)C[C@H]5/C=C/CCCCC[C@H](NC(=O)OC(C)(C)C)C(=O)N4C3)nc2c1"
Reply text: 180 nM

---

- target_or_test_system: Hepatitis C virus serine protease, NS3/NS4A (Hepatitis C virus, UniProt A3EZI9+D2K2A8)
- assay_summary: Inhibition of HCV GT-3a NS3/4a protease using Ac-DE-D(Edans)-EE-Abu-c-[COO]-AS-K(Dabcy1)-NH2 preincubated for 1 hr followed by substrate addition
- Assay type: protein-complex assay, Hepatitis C virus subtype 3a
// classify: if (Ki < 200 nM) criterion met else criterion not met

>>> answer_label("COc1ccc2nc(O[C@@H]3C[C@H]4C(=O)N[C@]5(C(=O)NS(=O)(=O)C6(C)CC6)C[C@H]5/C=C/CCCCC[C@H](NC(=O)OC(C)(C)C)C(=O)N4C3)c(C(F)(F)F)nc2c1")
"criterion not met"
>>> answer_label("COc1ccc2nc(O[C@@H]3C[C@H]4C(=O)N[C@]5(C(=O)NS(=O)(=O)C6(C)CC6)C[C@H]5/C=C/CCCCC[C@H](NC(=O)O[C@@H](C)C5CC5)C(=O)N4C3)c(C(F)(F)F)nc2c1")
"criterion not met"
>>> answer_label("COc1ccc2nc(O[C@@H]3C[C@H]4C(=O)N[C@]5(C(=O)NS(=O)(=O)C6(C)CC6)C[C@H]5/C=C/CCCCC[C@H](NC(=O)OC5C[C@@H]6C[C@@H]6C5)C(=O)N4C3)c(C(F)(F)F)nc2c1 (stereo not given in full)")
"criterion met"
>>> answer_label("COc1ccc2nc(O[C@@H]3C[C@H]4C(=O)N[C@]5(C(=O)NS(=O)(=O)C6(C)CC6)C[C@H]5/C=C/CCCCC[C@H](NC(=O)OC5CCC5)C(=O)N4C3)c(C(F)(F)F)nc2c1")
"criterion not met"
>>> answer_label("COc1ccc2nc(C)c(O[C@@H]3C[C@H]4C(=O)N[C@]5(C(=O)NS(=O)(=O)C6(C)CC6)C[C@H]5/C=C/CCCCC[C@H](NC(=O)OC(C)(C)C)C(=O)N4C3)nc2c1")
"criterion met"
>>> answer_label("COc1ccc2nc(C)c(O[C@@H]3C[C@H]4C(=O)N[C@]5(C(=O)NS(=O)(=O)C6(C)CC6)C[C@H]5/C=C/CCCCC[C@H](NC(=O)O[C@@H]5CCC[C@H]5F)C(=O)N4C3)nc2c1")
"criterion not met"
>>> answer_label("COc1ccc2nc(C)c(O[C@@H]3C[C@H]4C(=O)N[C@]5(C(=O)NS(=O)(=O)C6(C)CC6)C[C@H]5/C=C/CCCCC[C@H](NC(=O)OC5(C(F)(F)F)CCCC5)C(=O)N4C3)nc2c1")
"criterion met"
>>> answer_label("CCC(C)(C)OC(=O)N[C@H]1CCCCC/C=C/[C@@H]2C[C@@]2(C(=O)NS(=O)(=O)C2(C)CC2)NC(=O)[C@@H]2C[C@@H](Oc3nc4ccc(OC)cc4nc3C(F)(F)F)CN2C1=O")
"criterion not met"
>>> answer_label("COc1ccc2nc(C)c(O[C@@H]3C[C@H]4C(=O)N[C@]5(C(=O)NS(=O)(=O)C6(C)CC6)C[C@H]5/C=C/CCCCC[C@H](NC(=O)OC(C)(C)C(F)(F)F)C(=O)N4C3)nc2c1")
"criterion met"

Inquiry: Lab note: Ki threshold 200 nM. Does this compound come in strictly under it? COc1ccc2nc(O[C@@H]3C[C@H]4C(=O)N[C@]5(C(=O)NS(=O)(=O)C6(C)CC6)C[C@H]5/C=C/CCCCC[C@H](NC(=O)OCC5(C)CC5(F)F)C(=O)N4C3)c(C(F)(F)F)nc2c1 (stereo not given in full)
Reply text: criterion not met
